Target: CCR2 receptor (Homo sapiens)
Sequence (P41597 1-360 isoform P41597-2): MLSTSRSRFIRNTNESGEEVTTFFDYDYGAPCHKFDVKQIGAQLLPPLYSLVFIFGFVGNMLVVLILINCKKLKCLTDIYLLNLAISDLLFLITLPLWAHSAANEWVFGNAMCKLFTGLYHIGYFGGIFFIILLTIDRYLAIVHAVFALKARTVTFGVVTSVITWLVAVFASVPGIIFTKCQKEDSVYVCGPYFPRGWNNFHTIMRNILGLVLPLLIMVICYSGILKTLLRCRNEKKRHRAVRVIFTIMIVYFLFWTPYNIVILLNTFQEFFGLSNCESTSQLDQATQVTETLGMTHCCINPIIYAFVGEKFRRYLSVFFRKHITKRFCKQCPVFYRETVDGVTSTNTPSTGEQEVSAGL
Assay: Inhibition of MCP-1 induced Ca-flux in human THP-1 cells
Details: inhibition of specific MCP-1 (10^-7 M hMCP-1) induced Ca2+ flux in human THP-1 cells; pIC50 = -log IC50 (molar)
Property: IC50 (nM)
Give bare numbers, in nM.

Reference set, count: 8
>>> endpoint_value("CCC(c1ccc(F)c(F)c1)n1c(C(=O)NC)cnc1S (stereo not drawn)")
2240
>>> endpoint_value("CCC(c1ccc(F)c(F)c1)n1c(C(=O)OC)cnc1S (stereo not drawn)")
1020
>>> endpoint_value("COC(=O)c1c(C(N)=O)[nH]c(=S)n1C(C)c1ccc(Cl)c(Cl)c1 (stereo not drawn)")
133
>>> endpoint_value("CCC(c1ccc(F)c(F)c1)n1c(C(=O)NCC(C)C)cnc1S (stereo not drawn)")
2480
>>> endpoint_value("O=c1[nH][nH]c(=O)c2c1[nH]c(=S)n2C(c1ccc(Cl)c(Cl)c1)C1CC1 (stereo not drawn)")
331
>>> endpoint_value("CCC(c1ccc(Cl)c(Cl)c1)n1c(C(=O)NC)cnc1S (stereo not drawn)")
219
>>> endpoint_value("COC(=O)c1[nH]c(=S)n(C(c2ccc(Cl)c(Cl)c2)c2ccc(Cl)c(Cl)c2)c1C(=O)OC")
468
>>> endpoint_value("CCC(c1ccc(Cl)c(Cl)c1)n1c(S)nc(C(=O)NC)c1C(=O)NC (stereo not drawn)")
355

Attention now shifts to the item below.
In: Given CCC(c1ccc(Cl)c(Cl)c1)n1cc(C(=O)OCCO)[nH]c1=S (stereo not drawn) , state its recorded IC50.
Out: 1020

---

target: CCR2 receptor (Homo sapiens, UniProt P41597); assay: Inhibition of MCP-1 induced Ca-flux in human THP-1 cells; conditions: inhibition of specific MCP-1 (10^-7 M hMCP-1) induced Ca2+ flux in human THP-1 cells; pIC50 = -log IC50 (molar)
Property: pIC50
Give bare numbers, as −log10 of the molar value.

Sample answers from the record:
>>> endpoint_value("CCC(c1ccc(Cl)c(Cl)c1)n1c(C(=O)OC)c(C)[nH]c1=S (stereo not shown) [Compound 6]")
6.58
>>> endpoint_value("CCC(c1ccc(Cl)c(Cl)c1)n1c(C(=O)NCCO)c[nH]c1=S (stereo not shown) [Compound 105]")
6.89
>>> endpoint_value("CCC(c1ccc(Cl)c(Cl)c1)n1c(C(=O)N(C)OC)c[nH]c1=S (stereo not shown) [Compound 106]")
5.75

Report pIC50 for each item below.
1. CCC(c1ccc(Br)c(Br)c1)n1c(C(=O)OC)cnc1S (stereo not shown) [Compound 76]
2. CCC(c1cc(F)cc(F)c1)n1c(C(=O)OC)c(C(=O)OC)[nH]c1=S (stereo not shown) [Compound 124]
3. CCC(c1ccc(Cl)c(Cl)c1)n1cc(C(N)=O)[nH]c1=S (stereo not shown) [Compound 51]
4. CCC(c1ccc(Cl)c(Cl)c1)n1c(C(C)=O)c[nH]c1=S (stereo not shown) [Compound 81]
5. CCC(c1ccc(F)c(C(F)(F)F)c1)n1c(C(=O)OCC(=O)N(CC)CC)c[nH]c1=S (stereo not shown) [Compound 62]
6. COC(=O)c1c[nH]c(=S)n1C(c1ccc(Cl)c(Cl)c1)C1CC1 (stereo not shown) [Compound 2]
7. CCC(c1ccc(Cl)c(Cl)c1)n1c(C#N)cnc1S (stereo not shown) [Compound 7]

Out:
6.59
7.19
5.75
6.88
5.99
5.67
6.16

// each compound listed below needs its pIC50
1. CCC(c1ccc(Cl)c(Cl)c1)n1c(S)nc(C(=O)OC(C)(C)C)c1C#N (stereo not shown) [Compound 78]
2. CCCC(c1ccc(Cl)c(Cl)c1)n1c(C(=O)OC)cnc1S (stereo not shown) [Compound 35]
3. CC[C@H](c1ccc(Cl)c(Cl)c1)n1c(C(=O)OC)cnc1S [Compound 16]

Out:
1: 6.09; 2: 6.86; 3: 5.99
